Target: BRD2-BD2 (Homo sapiens (Human), UniProt P25440)
Sequence (P25440 344-453): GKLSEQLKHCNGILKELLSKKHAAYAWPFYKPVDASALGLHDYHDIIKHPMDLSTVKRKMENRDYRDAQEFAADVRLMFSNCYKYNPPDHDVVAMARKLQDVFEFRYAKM
Experiment: competitive TR-FRET assay, BET-BD with acetylated peptide ligand
Format: binding
Settings: ratio of BRD2-BD1 EC50 to BRD2-BD2 EC50 (selectivity)
Checkbox rule: 2.1/2.2 lower than 10 = True; 2.1/2.2 not lower than 10 = False.

Solved entries (count: 6):
compound	label value
CC(=O)N1c2ccc(-c3cccc(NCC4CCCCC4)c3)cc2[C@H](NC(=O)OC(C)C)C[C@@H]1C [compound 112]	True
CC(=O)N1c2ccc(-c3cc4ccccc4[nH]3)cc2[C@H](NC(=O)OC(C)C)C[C@@H]1C [compound 92]	True
CC(=O)N1c2ccc(C3=CCCO3)cc2[C@H](NC(=O)OC(C)C)C[C@@H]1C [compound 85]	True
CC(=O)N1c2ccc(-c3cccc(NCCC(F)(F)F)c3)cc2[C@H](Nc2ccc(C#N)cc2)C[C@@H]1C [compound 180]	False
COC(=O)c1ccc(CN[C@@H]2C[C@H](C)N(C(C)=O)c3ccc(-c4cccc(NC(C)=O)c4)cc32)cc1 [compound 159]	True
CC(=O)Nc1cccc(-c2ccc3c(c2)[C@H](Nc2ccc(F)cc2Cl)C[C@H](C)N3C(C)=O)c1 [compound 204]	False

Consider now this further compound.
2.1/2.2 strictly < 10 for this compound? CC(=O)N1c2ccc(-c3cccc(NCC4CCOC4)c3)cc2[C@H](Nc2ccc(C#N)cc2)C[C@@H]1C (stereo partly shown) [compound 183]
False

====

Target: BRD2-BD2 (Homo sapiens (Human))
Assay: competitive TR-FRET assay, BET-BD with acetylated peptide ligand
Assay type: binding
Conditions: ratio of BRD2-BD1 EC50 to BRD2-BD2 EC50 (selectivity)
# binning rule on 2.1/2.2: c1: < 4; c2: ≥ 4 and < 20; c3: ≥ 20

Solved entries (count: 6):
compound	label value
CC(=O)N1c2ccc(-c3cccc(NC(=O)CCc4ccccc4)c3)cc2[C@H](NC(=O)OC(C)C)C[C@@H]1C [compound 116]	c2
COc1cccc(-c2ccc3c(c2)[C@H](Nc2ccc(Cl)cc2)C[C@H](C)N3C(C)=O)c1 [compound 147]	c2
COC(=O)c1ccc(N[C@@H]2C[C@H](C)N(C(C)=O)c3ccc(-c4cccc(NC(C)=O)c4)cc32)c(C)c1 [compound 160]	c3
CC(=O)N1c2ccc(-c3cccc(NC(=O)OC(C)(C)C)c3)cc2[C@H](NC(=O)OC(C)C)C[C@@H]1C [compound 84]	c1
COc1ccc(-c2ccc3c(c2)[C@H](NC(=O)OC(C)C)C[C@H](C)N3C(C)=O)cc1 [compound 59]	c1
CC(=O)Nc1cccc(-c2ccc3c(c2)[C@H](Nc2ccc4ncccc4c2)C[C@H](C)N3C(C)=O)c1 [compound 13]	c1

Which band does CC(=O)Nc1cccc(-c2ccc3c(c2)[C@H](Nc2ccc(C#N)cc2Cl)C[C@H](C)N3C(C)=O)c1 [compound 196] fall in?
c3

Which band does CC(=O)N1c2ccc(-c3cccc(N)c3)cc2[C@H](NC(=O)OC(C)C)C[C@@H]1C [compound 2] fall in?
c2

Which band does CCCCOc1cccc(-c2ccc3c(c2)[C@H](Nc2ccc(C(=O)OC)cc2)C[C@H](C)N3C(C)=O)c1 [compound 164] fall in?
c3

Which band does CC(=O)Nc1cccc(-c2ccc3c(c2)[C@H](Nc2ccc(C#N)cc2C)C[C@H](C)N3C(C)=O)c1 [compound 199] fall in?
c3

Which band does CC(=O)Nc1cccc(-c2ccc3c(c2)[C@H](NCc2ccccc2)C[C@H](C)N3C(C)=O)c1 [compound 63] fall in?
c1

Which band does CC(=O)N1c2ccc(-c3cccc(NS(C)(=O)=O)c3)cc2[C@H](NC(=O)OC(C)C)C[C@@H]1C [compound 93] fall in?
c2

====

Molecular target: BRD2-BD2 (Homo sapiens (Human), UniProt P25440)
Test: competitive TR-FRET assay, BET-BD with acetylated peptide ligand
Format: binding
Conditions: ratio of BRD2-BD1 EC50 to BRD2-BD2 EC50 (selectivity)
Please go through the items and note down their 2.1/2.2.
One number for each entry.

Sample records with 2.1/2.2:
molecule	readout label	obs value
COC(=O)c1ccc(N[C@@H]2C[C@H](C)N(C(C)=O)c3ccc(-c4ccnn4C)cc32)cc1	2.1/2.2	7.0
CCCCN(CCCC)c1cccc(-c2ccc3c(c2)[C@H](Nc2ccc(C(=O)OC)cc2)C[C@H](C)N3C(C)=O)c1	2.1/2.2	93
CC(=O)N1c2ccc(-c3ccc4c(c3)OCCO4)cc2[C@H](NC(=O)OC(C)C)C[C@@H]1C	2.1/2.2	1.6

Please find the next compound below.
Using the record for CC(=O)N1c2ccc(-c3ccc4[nH]ccc4c3)cc2[C@H](NC(=O)OC(C)C)C[C@@H]1C , report its 2.1/2.2.
2.7

====

Target: BRD3-BD1 (Homo sapiens (Human))
Sequence (Q15059 34-140): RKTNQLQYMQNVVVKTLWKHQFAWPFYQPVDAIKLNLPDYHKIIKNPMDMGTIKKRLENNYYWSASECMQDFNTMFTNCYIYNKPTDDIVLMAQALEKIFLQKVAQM
Assay: competitive TR-FRET assay, BET-BD with acetylated peptide ligand
Type: binding
Settings: BRD3-BD1; Table 11 additional modifications; read-out: 3.1 EC50
Experimental: Inhibitor potency was determined using a competitive TR-FRET assay as detailed herein, measuring interaction of the respective BET-BD with an acetylated peptide ligand (Table 2).
readout label: EC50
Respond with the figure and its unit, in that order.

compound	EC50
COC(=O)c1ccccc1N[C@@H]1C[C@H](C)N(C(C)=O)c2ccc(-c3cccc(NC(C)=O)c3)cc21 [compound 15]	10000 nM
CC(=O)Nc1cccc(-c2ccc3c(c2)[C@H](Nc2ccc(OC(F)(F)F)cc2)C[C@H](C)N3C(C)=O)c1 [compound 132]	10000 nM
COc1cc(F)ccc1N[C@@H]1C[C@H](C)N(C(C)=O)c2ccc(-c3ccn(C)n3)cc21 [compound 173]	1500 nM

Each of the following entries comes with a recorded value; kindly state EC50 for each.
1. COC(=O)c1ccc(N[C@@H]2C[C@H](C)N(C(C)=O)c3ccc(-c4ccnn4C)cc32)cc1 [compound 144]
2. CC(=O)N1c2ccc(-c3cccc(NCC(C)C)c3)cc2[C@H](NC(=O)OC(C)C)C[C@@H]1C [compound 96]

3100 nM
830 nM

Each of the following entries comes with a recorded value; kindly state EC50 for each.
1. COC(=O)c1ccc(N[C@@H]2C[C@H](C)N(C(C)=O)c3ccc(-c4cccc(NCCC(C)C)c4)cc32)cc1 [compound 142]
2. CC(=O)N1c2ccc(-c3cccc(N)c3)cc2[C@H](NC(=O)OC(C)C)C[C@@H]1C [compound 2]

2500 nM
250 nM

====

Target: BRD2-BD2 (Homo sapiens (Human), UniProt P25440)
Assay: competitive TR-FRET assay, BET-BD with acetylated peptide ligand
Assay type: binding
Conditions: BRD2-BD2; Table 11 additional modifications; read-out: 2.2 EC50
Method: Inhibitor potency was determined using a competitive TR-FRET assay as detailed herein, measuring interaction of the respective BET-BD with an acetylated peptide ligand (Table 2).
Please go through the items and note down their pEC50.
One number for each entry, as −log10 of the molar value.

compound	subject of test	pEC50
CCCCN(CCCC)c1cccc(-c2ccc3c(c2)[C@H](Nc2ccc(C(=O)OC)cc2)C[C@H](C)N3C(C)=O)c1	BRD2-BD2 (Homo sapiens (Human), UniProt P25440)	5.96
CC(=O)Nc1cccc(-c2ccc3c(c2)[C@H](Nc2cccc(Cl)c2)C[C@H](C)N3C(C)=O)c1	BRD2-BD2 (Homo sapiens (Human), UniProt P25440)	7.24
COc1ccc(C(=O)N[C@@H]2C[C@H](C)N(C(C)=O)c3ccc(-c4cccc(NC(C)=O)c4)cc32)cc1	BRD2-BD2 (Homo sapiens (Human), UniProt P25440)	4.44
CCCNc1cccc(-c2ccc3c(c2)[C@H](NC(=O)OC(C)C)C[C@H](C)N3C(C)=O)c1	BRD2-BD2 (Homo sapiens (Human), UniProt P25440)	6.28
CCCC(=O)Nc1cccc(-c2ccc3c(c2)[C@H](NC(=O)OC(C)C)C[C@H](C)N3C(C)=O)c1	BRD2-BD2 (Homo sapiens (Human), UniProt P25440)	6.96

Each of the following entries comes with a recorded value; kindly state pEC50 for each.
1. COC(=O)c1ccc(N[C@@H]2C[C@H](C)N(C(C)=O)c3ccc(-c4cccc(NCCC(C)C)c4)cc32)cc1
2. CC(=O)N1c2ccc(-c3cccc(NS(C)(=O)=O)c3)cc2[C@H](NC(=O)OC(C)C)C[C@@H]1C
3. COc1cccc(N[C@@H]2C[C@H](C)N(C(C)=O)c3ccc(-c4cccc(NC(C)=O)c4)cc32)c1
4. CC(=O)Nc1cccc(-c2ccc3c(c2)[C@H](Nc2ccc(-c4nnc(C)o4)cc2)C[C@H](C)N3C(C)=O)c1
5. COc1cccc(-c2ccc3c(c2)[C@H](Nc2ccc(Cl)cc2)C[C@H](C)N3C(C)=O)c1
6. CC(=O)N1c2ccc(-c3cccc(NC(=O)C4CC4)c3)cc2[C@H](NC(=O)OC(C)C)C[C@@H]1C
7. CC(=O)Nc1cccc(-c2ccc3c(c2)[C@H](NC2CCOCC2)C[C@H](C)N3C(C)=O)c1
8. CC(=O)Nc1cccc(-c2ccc3c(c2)[C@H](Nc2ccccc2Cl)C[C@H](C)N3C(C)=O)c1 [compound 187]

[6.64, 6.92, 7.52, 7.92, 5.80, 6.77, 5.52, 6.92]

Using the record for CC(=O)Nc1cccc(-c2ccc3c(c2)[C@H](Nc2cccc(C(F)(F)F)c2)C[C@H](C)N3C(C)=O)c1 , report its pEC50.
6.77
